Cited source: the supplement of paper PMC10126150

- Test system: ATP;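 further: ATP exposure 15 min at 22 °C before imaging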
- assay.explanation: switch fluorescence ratio, 500 uM ATP over buffer (Cy3 cluster intensity, sum of 5 cycles each) (fold (ratio)); higher = stronger signal-on switching upon ATP binding; sequences stand for … in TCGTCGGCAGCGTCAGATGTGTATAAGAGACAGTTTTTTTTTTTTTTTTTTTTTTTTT…TC
- recorded.conditions: aptamer strand: ATP DNA aptamer (quencher-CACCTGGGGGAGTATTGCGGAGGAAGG + anchor), 100 nM annealed; ATP concentration: 500 uM
measurement.type: switch fluorescence ratio

{"record.sequence": "TTTGGCCGCT", "measurement.type": "switch fluorescence ratio", "observed.measurement": 0.985}
{"record.sequence": "TTTATCCGAG", "measurement.type": "switch fluorescence ratio", "observed.measurement": 1.04}
{"record.sequence": "CGTGGCTGGT", "measurement.type": "switch fluorescence ratio", "observed.measurement": 0.996}
{"record.sequence": "GGGGTGATGG", "measurement.type": "switch fluorescence ratio", "observed.measurement": 1.02}
{"record.sequence": "CCATGGCGGG", "measurement.type": "switch fluorescence ratio", "observed.measurement": 0.97}
{"record.sequence": "ATGGGGAAAG", "measurement.type": "switch fluorescence ratio", "observed.measurement": 0.988}
{"record.sequence": "ATCGTGGGAT", "measurement.type": "switch fluorescence ratio", "observed.measurement": 1.01}
{"record.sequence": "GTTTGTCAGG", "measurement.type": "switch fluorescence ratio", "observed.measurement": 0.99}
{"record.sequence": "ATGATAAAAT", "measurement.type": "switch fluorescence ratio", "observed.measurement": 1.11}
{"record.sequence": "ACAGGGGCGG", "measurement.type": "switch fluorescence ratio", "observed.measurement": 1.01}
{"record.sequence": "TACGGGTCGA", "measurement.type": "switch fluorescence ratio", "observed.measurement": 1.01}
{"record.sequence": "TTTCAAACCT", "measurement.type": "switch fluorescence ratio", "observed.measurement": 1.57}
{"record.sequence": "GCTTATCGGT", "measurement.type": "switch fluorescence ratio", "observed.measurement": 0.996}
{"record.sequence": "GCGTGGGGGA", "measurement.type": "switch fluorescence ratio", "observed.measurement": 1}
{"record.sequence": "GCTATGAGAC", "measurement.type": "switch fluorescence ratio", "observed.measurement": 1.03}
{"record.sequence": "AAGATCTGCC", "measurement.type": "switch fluorescence ratio", "observed.measurement": 1.04}
{"record.sequence": "AGGTTGTATC", "measurement.type": "switch fluorescence ratio", "observed.measurement": 1.01}
{"record.sequence": "GTAATAGGTT", "measurement.type": "switch fluorescence ratio", "observed.measurement": 0.956}
{"record.sequence": "GCTCACCTAT", "measurement.type": "switch fluorescence ratio", "observed.measurement": 1.05}
{"record.sequence": "TGGTGGTGGG", "measurement.type": "switch fluorescence ratio", "observed.measurement": 1.02}

###

- Test system: ATP;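 further: ATP exposure 15 min at 22 °C before imaging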
- assay.explanation: switch fluorescence ratio, 500 uM ATP over buffer (Cy3 cluster intensity, sum of 5 cycles each) (fold (ratio)); higher = stronger signal-on switching upon ATP binding; sequences stand for … in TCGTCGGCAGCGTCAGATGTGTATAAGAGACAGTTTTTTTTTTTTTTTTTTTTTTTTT…TC
- recorded.conditions: aptamer strand: ATP DNA aptamer (quencher-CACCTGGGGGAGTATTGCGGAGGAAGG + anchor), 100 nM annealed; ATP concentration: 500 uM
switch fluorescence ratio values by entry

{"record.sequence": "TACTGCAATT", "switch fluorescence ratio": 1.35}
{"record.sequence": "TAGGTGTTGC", "switch fluorescence ratio": 1}
{"record.sequence": "ATAGTAGGTC", "switch fluorescence ratio": 1.05}
{"record.sequence": "TGAGAGTAAC", "switch fluorescence ratio": 0.946}
{"record.sequence": "GGGGCGAGGT", "switch fluorescence ratio": 0.997}
{"record.sequence": "TGATCATCTA", "switch fluorescence ratio": 0.993}
{"record.sequence": "AAGGTAGGCG", "switch fluorescence ratio": 0.987}
{"record.sequence": "GTTGTAACAT", "switch fluorescence ratio": 0.995}
{"record.sequence": "AACATGGGGG", "switch fluorescence ratio": 1.01}
{"record.sequence": "TAGTTATGAG", "switch fluorescence ratio": 1.12}
{"record.sequence": "TGGCCGTGCT", "switch fluorescence ratio": 0.904}
{"record.sequence": "AGTCAGGGTC", "switch fluorescence ratio": 0.99}
{"record.sequence": "GTGGGGCTGG", "switch fluorescence ratio": 1.01}
{"record.sequence": "TGTTAGGATT", "switch fluorescence ratio": 0.997}
{"record.sequence": "TAGCGGGGAC", "switch fluorescence ratio": 1.07}
{"record.sequence": "AATAGGAATT", "switch fluorescence ratio": 0.971}
{"record.sequence": "GTGGTGTTGT", "switch fluorescence ratio": 0.97}
{"record.sequence": "TTTACGGCTA", "switch fluorescence ratio": 1.06}
{"record.sequence": "TGTGGTTTAC", "switch fluorescence ratio": 0.978}
{"record.sequence": "TGATGATTTT", "switch fluorescence ratio": 0.945}

###

- System: ATP;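 further: ATP exposure 15 min at 22 °C before imaging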
- assay.explanation: switch fluorescence ratio, 500 uM ATP over buffer (Cy3 cluster intensity, sum of 5 cycles each) (fold (ratio)); higher = stronger signal-on switching upon ATP binding; sequences stand for … in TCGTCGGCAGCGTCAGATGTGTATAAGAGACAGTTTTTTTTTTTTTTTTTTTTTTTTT…TC
- recorded.conditions: aptamer strand: ATP DNA aptamer (quencher-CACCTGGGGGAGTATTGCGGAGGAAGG + anchor), 100 nM annealed; ATP concentration: 500 uM
switch fluorescence ratio values by entry
measurement.type: switch fluorescence ratio

{"record.sequence": "GCACTTGTTT", "observed.measurement": 1}
{"record.sequence": "GAGGTTCGGT", "observed.measurement": 1.02}
{"record.sequence": "GTGCCCTGAC", "observed.measurement": 1.29}
{"record.sequence": "TTTTGAAACT", "observed.measurement": 0.973}
{"record.sequence": "ACTAATGGGC", "observed.measurement": 1.03}
{"record.sequence": "ATGATAGAAC", "observed.measurement": 1.03}
{"record.sequence": "TCAAAAGGTG", "observed.measurement": 1.33}
{"record.sequence": "TAAGTAGTTT", "observed.measurement": 1.02}
{"record.sequence": "TTCGGTTTGG", "observed.measurement": 0.995}
{"record.sequence": "TTTCAGAAGG", "observed.measurement": 1.01}
{"record.sequence": "GCAGGGAATT", "observed.measurement": 1}
{"record.sequence": "GCGGCTATGG", "observed.measurement": 1.01}
{"record.sequence": "AGATCTGCAT", "observed.measurement": 1.11}
{"record.sequence": "CCGTGTACGG", "observed.measurement": 0.999}
{"record.sequence": "AATGTCGGGC", "observed.measurement": 1.02}
{"record.sequence": "GGTCCTCGTG", "observed.measurement": 0.998}
{"record.sequence": "TAGTGGGTCC", "observed.measurement": 1.02}
{"record.sequence": "GTTTAGGATT", "observed.measurement": 1.21}
{"record.sequence": "AGTTTTCGTG", "observed.measurement": 0.99}
{"record.sequence": "TAAATAGTTT", "observed.measurement": 0.993}
{"record.sequence": "AGCTTGTGAA", "observed.measurement": 1.01}
{"record.sequence": "GGGTTATGAA", "observed.measurement": 0.994}
{"record.sequence": "ATGGGGCACT", "observed.measurement": 0.979}
{"record.sequence": "AGGGCGGTAT", "observed.measurement": 1.03}
{"record.sequence": "TTATTGTAT", "observed.measurement": 0.988}
{"record.sequence": "TGTGAGGCGT", "observed.measurement": 0.993}
{"record.sequence": "AGAAAAAATT", "observed.measurement": 1}
{"record.sequence": "GGCAGTTTTG", "observed.measurement": 1.01}
{"record.sequence": "ACGGCAGTGA", "observed.measurement": 1.04}
{"record.sequence": "TGGTTTTTAG", "observed.measurement": 1.05}
{"record.sequence": "TGAAAGGCGT", "observed.measurement": 0.986}
{"record.sequence": "TAAGTGTTAG", "observed.measurement": 1.01}
{"record.sequence": "ACATATAGAG", "observed.measurement": 1.05}
{"record.sequence": "AATGGTGTGG", "observed.measurement": 0.995}
{"record.sequence": "GTTCCCTTGA", "observed.measurement": 1.02}
{"record.sequence": "TTTTCAATCT", "observed.measurement": 0.993}
{"record.sequence": "TGAGGGGTAG", "observed.measurement": 0.988}
{"record.sequence": "GGAGAATTTA", "observed.measurement": 1.02}
{"record.sequence": "AATGAAGAAG", "observed.measurement": 1.17}
{"record.sequence": "CCGACCTGTA", "observed.measurement": 1.94}
{"record.sequence": "CACCATGTTC", "observed.measurement": 0.989}
{"record.sequence": "GGATTTTGTG", "observed.measurement": 0.994}
{"record.sequence": "TTTCCTTTT", "observed.measurement": 1.01}
{"record.sequence": "GTTTGCAAGA", "observed.measurement": 1.01}
{"record.sequence": "GTGATAAGAG", "observed.measurement": 0.999}
{"record.sequence": "TCTGTTTGTT", "observed.measurement": 1.02}
{"record.sequence": "GCGGAAGGCG", "observed.measurement": 1}
{"record.sequence": "CACAGCTCAC", "observed.measurement": 1.79}
{"record.sequence": "AACGCTTCAC", "observed.measurement": 1.65}
{"record.sequence": "TGCGGGGGGG", "observed.measurement": 1.03}
{"record.sequence": "CCAGTGAGTC", "observed.measurement": 1.07}
{"record.sequence": "AAATTGGCTT", "observed.measurement": 0.97}
{"record.sequence": "AAGGGAGCAA", "observed.measurement": 1.09}
{"record.sequence": "GGGAGCGCTT", "observed.measurement": 1.03}
{"record.sequence": "GCGGTTGTCG", "observed.measurement": 1.01}
{"record.sequence": "AAGTTCGTTT", "observed.measurement": 0.986}
{"record.sequence": "TCATAATGAT", "observed.measurement": 1.01}
{"record.sequence": "TATAGGGGGT", "observed.measurement": 1.01}
{"record.sequence": "AATAACTGGT", "observed.measurement": 1.04}
{"record.sequence": "GTAAGGGATA", "observed.measurement": 0.988}
{"record.sequence": "CCAAAATTCC", "observed.measurement": 1.12}
{"record.sequence": "TTTCGAACAT", "observed.measurement": 1.03}
{"record.sequence": "TGCTGGGATT", "observed.measurement": 1.02}
{"record.sequence": "GGCCAAGGGG", "observed.measurement": 1.04}
{"record.sequence": "GTTTGAATTT", "observed.measurement": 0.989}
{"record.sequence": "TTGTTGGGCC", "observed.measurement": 1.01}
{"record.sequence": "TTTGTTGCTC", "observed.measurement": 1}
{"record.sequence": "CCATTGTAAG", "observed.measurement": 1.02}
{"record.sequence": "GAGGGTTGAA", "observed.measurement": 0.999}
{"record.sequence": "GCTGTCATTC", "observed.measurement": 1.01}
{"record.sequence": "ACGTTTGTAT", "observed.measurement": 1}
{"record.sequence": "GGGGGACTTC", "observed.measurement": 1.01}
{"record.sequence": "AGCAGGGCTT", "observed.measurement": 1.04}
{"record.sequence": "TGAGGTTGGC", "observed.measurement": 1.01}
{"record.sequence": "AGAAGTGAGC", "observed.measurement": 0.978}
{"record.sequence": "GATTATGGCG", "observed.measurement": 1.05}
{"record.sequence": "TTCGGGACCC", "observed.measurement": 1.08}
{"record.sequence": "AAGGCTGAGT", "observed.measurement": 1}
{"record.sequence": "TTAGTTTTTC", "observed.measurement": 1.01}
{"record.sequence": "CGTTGGTACG", "observed.measurement": 1}
{"record.sequence": "AGGTTCTTA", "observed.measurement": 0.994}
{"record.sequence": "CGGGGGCTG", "observed.measurement": 1}
{"record.sequence": "AGGTTACCGC", "observed.measurement": 1.03}
{"record.sequence": "TTCATATTG", "observed.measurement": 0.992}
{"record.sequence": "CGTAGTTTTA", "observed.measurement": 1.04}
{"record.sequence": "GTTGTTAGGT", "observed.measurement": 0.97}
